Reported Log P values for the following compounds.
experimental.parameters: pH 2.7
Marks after values point to notes of the source that are not given here.

Examples with answers:
compound: CCOC(=O)C(C#N)=C(NC1CCC1)c1ccnc(Cl)c1Cl
reported.measurement: 3.52^[a]
//
compound: C=CCOC(=O)C(C#N)=C(NC(C)C(C)C)c1sccc1Br (centres unmarked)
reported.measurement: 4.34^[a]
//
compound: CCOC(=O)C(C#N)=C(NC(C)COc1ccc(F)cc1)c1cn(C)nc1C(F)F (centres unmarked)
reported.measurement: 3.42^[a]
//
compound: CCOC(=O)C(C#N)=C(NC(C)C#N)c1cn(C)nc1C(F)F (racemic)
reported.measurement: 2.15^[a]
//
compound: CCOC(=O)C(C#N)=C(NC(C)c1nccs1)c1ccncc1F (centres unmarked)
reported.measurement: 2.41^[a]
//
compound: CCOC(=O)C(C#N)=C(NC(C)c1ncc(C)s1)c1ccnc(Cl)c1Cl (racemic)
reported.measurement: 3.33^[a]
//
compound: COC(=O)C(C#N)=C(NC1(C(F)(F)F)CCCCC1)c1cccnc1Cl
reported.measurement: 2.99^[a]
//
compound: CCOC(=O)C(C#N)=C(NC(C)c1ccccc1)c1sc(C)nc1C(F)(F)F (mixture of isomers)
reported.measurement: 3.99^[a]
//
compound: CCNC(=O)C(C#N)=C(NC(C)c1ccccn1)c1ccnc(C)c1Cl (racemic)
reported.measurement: 2.7^[a]
//
compound: CCOC(=O)C(C#N)=C(NC1CCS(=O)(=O)C1)c1cn(C)nc1C(F)F (centres unmarked)
reported.measurement: 1.79^[a]

Q: Consider the compound shown here: CCOC(=O)C(C#N)=C(NC(C)CCCC(C)C)c1sccc1C(F)(F)F (centres unmarked) What is its recorded Log P?
Ans: 5.39^[a]

Q: Consider the compound shown here: CCOC(=O)C(C#N)=C(NC(C)C(=O)OC)c1sccc1Br (centres unmarked) What is its recorded Log P?
Ans: 2.96^[a]

Q: Consider the compound shown here: CCOC(=O)C(C#N)=C(NC(C)c1nc(C(C)C)no1)c1cccnc1Cl (mixture of isomers) What is its recorded Log P?
Ans: 3.2^[a]

Q: Consider the compound shown here: CCOC(=O)C(C#N)=C(NC(C)C(C)C)c1cc(Cl)ncc1Cl (centres unmarked) What is its recorded Log P?
Ans: 3.96^[a]

====

experimental.parameters: pH 2.7
Marks after values point to notes of the source that are not given here.
experimental.endpoint: Log P

Examples with answers:
compound: CCOC(=O)C(C#N)=C(NC(C)c1c(C)cccc1C)c1cccnc1Cl (centres unmarked) [Compound 1534]
Log P: 3.96^[a]

compound: COC(=O)C(C#N)=C(NC1C(C)CCCC1C)c1cccnc1Cl (centres unmarked) [Compound 1058]
Log P: 3.63^[a]

compound: CCOC(=O)C(C#N)=C(NC(C)C1CCCO1)c1sc(C)nc1C(F)(F)F (centres unmarked) [Compound 193]
Log P: 3.29^[a]

compound: CCOC(=O)C(C#N)=C(NC(CC)CC#N)c1cn(C)nc1C(F)F (centres unmarked) [Compound 1342]
Log P: 2.39^[a]

Here is the next item to consider.
Q: Consider the compound shown here: CCOC(=O)/C(C#N)=C(\NCC(C)N)c1sc(C)nc1C(F)(F)F (centres unmarked) [Compound 643] What is its recorded Log P?
Ans: 1.11^[a]
